- EXPERIMENTAL DETAILS: Plasma pharmacokinetics after oral administration of YCHT in control (normal) rats, UHPLC-MS/MS
- Type: in vivo, Sprague-Dawley rats
- CONDITION PARAMETERS: Sprague-Dawley, rat, in vivo; control rats, oral YCHT 60 g/kg, plasma, n = 6; read-out: CLz/F (converted)
Each entry below carries its reported CL/F.
Please reply with the bare figure in mL/min/kg and do not write the unit itself.

The following compounds have reported results that may help.
COMPOUND | CL/F (mL/min/kg)
O=C1c2cccc(O)c2C(=O)c2c(O)cc(CO)cc21 | 737
Cc1cc(O)c2c(c1)C(=O)c1cc(O)cc(O)c1C2=O | 1160

Shift focus to the following entry.
State its CL/F for this compound: COC(=O)C1=CO[C@@H](O[C@@H]2O[C@H](CO)[C@@H](O)[C@H](O)[C@H]2O)[C@@H]2C(CO)=CC[C@H]12 [Geniposide]
147
